Values were extracted from the supplement of paper PMC12042874.

assayInfo: amyloid nucleation score (Sup35N fusion, yeast selection) (log enrichment); library NNK2; higher = more nucleation; inactive = no reads after selection;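 further: zero at mode of non-aggregating sequences after 7 days selection at 30°C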
observationType: amyloid nucleation score

Worked examples follow.
>>> endpointvalue("FSWSYDVDIT")
"inactive"
>>> endpointvalue("DDVMMILGNNTSYVLFNMPC")
"inactive"
>>> endpointvalue("HNRSFILNTAKFLVVNNPLA")
"inactive"
>>> endpointvalue("IRVYFRDEYLKFG")
-0.358
>>> endpointvalue("PPNRVNGNW")
0.853
>>> endpointvalue("GWGFFIDSYQHGLLM")
-1.27
>>> endpointvalue("HVGLKSLHTMASWFMFDHNI")
"inactive"
>>> endpointvalue("CYSVFSLY")
-0.81
>>> endpointvalue("FRWGFVSPDRSIGDVFLQLC")
-0.137
>>> endpointvalue("TSLKYSVENTVASPVDRTWL")
-0.055

Just so you know, measured amyloid nucleation score for `RALRVRILYCEARRMCFMAN` came out at 0.236

The sequence identified as `FDAMSSFLQYLLTHKMWVGD` registered its amyloid nucleation score at 0.799

amyloid nucleation score recorded for this sequence, `GIVFIYMNRPSFVVDDLTAG` , is 7.27

Record `CIMPVCVYDCLPLGRGIYWR` , field amyloid nucleation score: 0.745

amyloid nucleation score recorded for this sequence, `WLTYRCSVYYFYVEYWKSVY` , is 0.256

get_value(item= `RRSTWSISLS` , readout=amyloid nucleation score) returns -0.916

Looking up `NLILWKTYCAAFCVGFINCT` , I see its amyloid nucleation score listed as 5.36

amyloid nucleation score reading for `SIVLSDGLGS` : 0.044

Memo: `CECVSSCVYSVILLGCTRSF` , reported amyloid nucleation score: inactive

The sequence listed as `FEGNGCSILWLSFCRWAQ` has a reported amyloid nucleation score of 0.98

response.value for `GDCNGSLLKWWR` (field: amyloid nucleation score) = 0.395

Memo: `MRLNYVYGCSFLDRIGT` , reported amyloid nucleation score: 0.57
